TEST DETAILS: Cynomolgus monkey tolerability, hematology (Example 34)
Type: in vivo, cynomolgus monkeys
ASSAY SETUP: cynomolgus monkey, in vivo, sc, 35 mg/kg
QUANTITY: RBC (µL⁻¹)
Kindly answer with a numeric value in µL⁻¹, unit omitted.

SUBSTANCE: 1198872 (TGTATGTCAGAAGAGT; chemically modified gapmer, further chemistry not given here) [compound 1198872]
UNIT STRING: µL⁻¹
RBC: 5.7e+06
//
SUBSTANCE: 1197270 (TTAAAGTGTATGTCAG; cEt gapmer with 2'-OMe nucleoside, phosphorothioate, further chemistry not given here) [compound 1197270]
UNIT STRING: µL⁻¹
RBC: 5.6e+06
//
SUBSTANCE: 1198605 (GTAATATTGCAATCTG; modified gapmer, further chemistry not given here) [compound 1198605]
UNIT STRING: µL⁻¹
RBC: 6.1e+06

Now let's try a different one.
Form field: reported RBC of 1198831 (CACTTTTACATTAGGA; chemically modified gapmer, further chemistry not given here) [compound 1198831] 5.6e+06

====

TEST DETAILS: Tolerability in Balb/c mice, body and organ weights (Example 12)
Format: in vivo
ASSAY SETUP: male Balb/c mice, 50 mg/kg s.c. twice a week for four weeks (8 treatments), end of study (day 26)
Strand notation (5' to 3'): a small letter for the sugar, then the base; units joined by * are phosphorothioate-linked, units joined directly phosphodiester-linked; [ ] holds rarer units or linkages, { } end groups; capitals alone tell only the bases. k = constrained ethyl (cEt); [5mC] = 5-methylcytosine; d = 2'-deoxy (DNA)
Hi! Could you tag entries with Kidney weight below 0.3 g as TRUE, and those at or above as FALSE? Much appreciated.

Past entries and their recorded results:
SUBSTANCE: 958540 (kA*kT*kT*d[5mC]*dT*dA*dT*d[5mC]*d[5mC]*dA*dG*dG*dG*kT*k[5mC]*kA; antisense) [compound 958540]
LABEL VALUE: FALSE
//
SUBSTANCE: 958603 (kT*kG*kG*dT*dA*dT*dG*dA*dA*dT*dT*d[5mC]*dT*kG*kA*kA; antisense) [compound 958603]
LABEL VALUE: FALSE
//
SUBSTANCE: 958725 (kG*kT*k[5mC]*dA*dG*dT*dT*dA*dT*d[5mC]*d[5mC]*dT*dA*kT*k[5mC]*k[5mC]; antisense) [compound 958725]
LABEL VALUE: TRUE
//
SUBSTANCE: 958454 (antisense kG*kG*kA*dA*dT*dG*dA*dG*d[5mC]*dT*d[5mC]*dG*dA*kA*k[5mC]*kA) [compound 958454]
LABEL VALUE: TRUE
//
SUBSTANCE: 958554 (kA*kA*k[5mC]*d[5mC]*dA*dT*dT*dA*dT*dT*dA*d[5mC]*dT*k[5mC]*k[5mC]*kT; antisense) [compound 958554]
LABEL VALUE: TRUE

Lab note: next substance to report on.
Identify whether the substance 958553 (k[5mC]*k[5mC]*kA*dT*dT*dA*dT*dT*dA*d[5mC]*dT*d[5mC]*d[5mC]*kT*kG*kT; antisense) [compound 958553] records Kidney weight below 0.3 g. TRUE

====

System: Yap1 mRNA
TEST DETAILS: Dose-dependent inhibition of human Yap1 in SNU-449 cells (Example 9, RTS36584)
Assay type: cell-based
ASSAY SETUP: free uptake, linear regression on a log/linear plot
pIC50: −log10 of the molar value. Strand notation (5' to 3'): a small letter for the sugar, then the base; units joined by * are phosphorothioate-linked, units joined directly phosphodiester-linked; [ ] holds rarer units or linkages, { } end groups; capitals alone tell only the bases. e = 2'-O-(2-methoxyethyl) (MOE); k = constrained ethyl (cEt); [5mC] = 5-methylcytosine; d = 2'-deoxy (DNA); m = 2'-O-methyl
Classification field: enter rule met for pIC50 values not below 7, rule not met for values below it.

Check out these entries, answers already filled in.
SUBSTANCE: 1200785 (kA*kT*kT*dG*dT*mC*dT*d[5mC]*dA*dT*dG*d[5mC]*d[5mC]*kT*kT*kA; antisense) [compound 1200785]
LABEL VALUE: rule not met

SUBSTANCE: 1197229 (kG*kG*kA*dA*mA*dT*dT*dG*dT*d[5mC]*dT*d[5mC]*dA*kT*kG*k[5mC]; antisense) [compound 1197229]
LABEL VALUE: rule met

SUBSTANCE: 1198911 (kG*kA*dG*dG*dT*dA*dT*dA*dA*d[5mC]*dT*kG*dG*kG*d[5mC]*kA; antisense) [compound 1198911]
LABEL VALUE: rule met

SUBSTANCE: 1198287 (kA*kA*kA*dT*dT*dG*dT*d[5mC]*dT*d[5mC]*dA*dT*kG*e[5mC]*k[5mC]*eT; antisense) [compound 1198287]
LABEL VALUE: rule not met

I'd appreciate it if you could say whether 1200789 (G_{ks}G_{ks}A_{ks}A_{ds}A_{ds}U_{ys}T_{ds}G_{ds}T_{ds}^{m}C_{ds}T_{ds}^{m}C_{ds}A_{ds}T_{ks}G_{ks}^{m}C_{k}; as printed in the source, key not given here) [compound 1200789] has pIC50 at least equal to 7. rule met

Please tell me: is the substance 1198664 (kG*k[5mC]*dT*dT*dT*dG*dG*dA*dA*dG*dA*dT*k[5mC]*eT*kG*eA; antisense) [compound 1198664] at or over 7 in terms of pIC50? rule met

Has 1198728 (TATTAGAGTATGTGGC; modified gapmer, further chemistry not given here) [compound 1198728] a recorded pIC50 greater than or equal to 7? rule met

====

Tested on: Yap1 mRNA
TEST DETAILS: Antisense inhibition of human Yap1 in A-431 cells by cEt gapmers, single dose (Example 3, RTS36584)
Type: cell-based
ASSAY SETUP: Table 13; A-431 cells, 5,000 cells per well, free uptake, 2,000 nM modified oligonucleotide, approx. 48 hours; RTS36584; normalized to RIBOGREEN; Yap1 mRNA relative to untreated control cells
Strand notation (5' to 3'): a small letter for the sugar, then the base; units joined by * are phosphorothioate-linked, units joined directly phosphodiester-linked; [ ] holds rarer units or linkages, { } end groups; capitals alone tell only the bases. k = constrained ethyl (cEt); [5mC] = 5-methylcytosine; d = 2'-deoxy (DNA)
Quick reference for YAP1 (% UTC) among some substances
Report as a plain number; the unit % UTC is understood.

Example cases with answers are listed next.
SUBSTANCE: 958725 (antisense kG*kT*k[5mC]*dA*dG*dT*dT*dA*dT*d[5mC]*d[5mC]*dT*dA*kT*k[5mC]*k[5mC]) [Compound 958725]
QUANTITY: YAP1 (% UTC)
EXPERIMENTAL VALUE: 1

SUBSTANCE: 958515 (k[5mC]*k[5mC]*k[5mC]*d[5mC]*dA*dA*d[5mC]*d[5mC]*dA*dG*dA*dT*dT*kT*kA*kA; antisense) [Compound 958515]
QUANTITY: YAP1 (% UTC)
EXPERIMENTAL VALUE: 28

SUBSTANCE: 958580 (kA*kT*kA*dA*dT*d[5mC]*dT*dT*dA*dA*dT*d[5mC]*dT*kG*kT*kG; antisense) [Compound 958580]
QUANTITY: YAP1 (% UTC)
EXPERIMENTAL VALUE: 4

SUBSTANCE: 958535 (kG*kG*kG*dT*d[5mC]*dA*dA*dT*dT*dT*dT*d[5mC]*dA*kG*k[5mC]*kA; antisense) [Compound 958535]
QUANTITY: YAP1 (% UTC)
EXPERIMENTAL VALUE: 10

SUBSTANCE: 958625 (antisense kT*kG*k[5mC]*dT*dG*dG*dG*dA*dT*dT*dG*dA*dT*kA*kT*kT) [Compound 958625]
QUANTITY: YAP1 (% UTC)
EXPERIMENTAL VALUE: 6

Looking for the measured YAP1 (% UTC) of 958665 (k[5mC]*kT*kG*d[5mC]*dA*dT*dA*d[5mC]*d[5mC]*d[5mC]*dT*d[5mC]*d[5mC]*kA*kG*k[5mC]; antisense) [Compound 958665] , can you help? 84

Look up YAP1 (% UTC) for this substance: 958765 (antisense kG*kT*kA*d[5mC]*dA*dG*dG*dA*dG*dA*dG*dA*dT*kT*kG*k[5mC]) [Compound 958765] 37

Given 958635 (antisense kG*kT*kT*dT*dA*dG*dG*d[5mC]*dA*dA*dG*d[5mC]*dA*kG*k[5mC]*kT) [Compound 958635] , state its recorded YAP1 (% UTC). 43

Entry under review: 958615 (antisense kT*kG*kG*dT*d[5mC]*dT*dT*dG*dT*dT*d[5mC]*dT*dT*kA*kT*kG) [Compound 958615] . Reported YAP1 (% UTC)? 3

YAP1 (% UTC) lookup needed for 958730 (antisense k[5mC]*kT*k[5mC]*dT*dG*dT*d[5mC]*dA*dG*dT*dT*dA*dT*k[5mC]*k[5mC]*kT) [Compound 958730] , thanks. 4

Field request: YAP1 (% UTC) | item: 958575 (kG*kG*k[5mC]*dT*dA*d[5mC]*dT*dG*dG*d[5mC]*dA*dA*dA*kT*kT*kA; antisense) [Compound 958575] 9

Using the record for 958490 (kG*kT*kG*dA*d[5mC]*dA*dT*dG*dA*dA*dG*d[5mC]*dA*kT*k[5mC]*kT; antisense) [Compound 958490] , report its YAP1 (% UTC). 5
